Numbers sourced from patent US20240287052A1.

# experimental.target: IL33 and ST2 binding (Homo sapiens, UniProt O95760)
# Sequence (O95760 112-270 limits assumed): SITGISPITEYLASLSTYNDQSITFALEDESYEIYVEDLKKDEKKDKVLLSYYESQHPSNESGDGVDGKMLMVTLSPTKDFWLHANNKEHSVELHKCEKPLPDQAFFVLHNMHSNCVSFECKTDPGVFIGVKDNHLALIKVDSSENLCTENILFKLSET
# condition.parameters: 100 µM
endpoint.label: inhibition (%)
# unit: % | format: bare number

Please review the entries below; each comes with its answer.
* CN1CCN(CCNC(=O)c2nc(-c3ccc(OC(F)(F)F)cc3)oc2-c2ccccc2[N+](=O)[O-])CC1 | 49
* CCOC(=O)c1nc(-c2ccc(C(F)(F)F)cc2)oc1-c1cccc(SC)c1 | 115
* CCOC(=O)c1nc(-c2ccc3ccccc3c2)oc1-c1ccccc1[N+](=O)[O-] | 54
* CN(C)CCNC(=O)c1nc(-c2ccc(F)cc2)oc1-c1ccc([N+](=O)[O-])cc1 | -98
* CSc1ccc(-c2nc(C(=O)NCCN(C)C)c(-c3ccccc3)o2)cc1 | 105
* O=C(c1nc(-c2ccc(C(F)(F)F)cc2)oc1-c1ccccc1[N+](=O)[O-])N1CCC(O)CC1 | -11
* CCOC(=O)c1nc(-c2ccc(Cl)cc2)oc1-c1ccccc1[N+](=O)[O-] | 68

With those in mind, consider the next compound.
IL33 and ST2 binding (Homo sapiens, UniProt O95760) / inhibition / CN1CCN(C(=O)c2nc(-c3ccc(C(F)(F)F)cc3)oc2-c2ccccc2[N+](=O)[O-])CC1 : value?;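 also: plate ELISA with coated Flag-tagged human IL-33 and His-tagged human ST2, bound ST2 detected by anti-His HRP and TMB absorbance at 450 nm, 2 h compound incubation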
-18
